Listed next: entries and their corresponding protein stability index.
B1: GALNT9 (parent)
chain: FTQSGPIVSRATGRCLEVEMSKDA

variants of: B1; assay: protein stability index of a GFP-peptide fusion (GPS, HEK-293T) (PSI 1-6); higher = more stable; details: c terminus: a fixed tail appended;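 note: lentivirally expressed fusions sorted by FACS into six bins by GFP to DsRed ratio, PSI derived from sequencing read proportions per bin multiplied by bin number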
Kindly provide the number alone.

Exercise: Find the recorded protein stability index belonging to `L16Y` and report it.
Solution: 1.99

Exercise: Quick one: protein stability index of `R10M` ?
Solution: 1.48

Exercise: protein stability index lookup needed for `I7D` , thanks.
Solution: 3.31
